biological target: T1, JNK2 (Homo sapiens, UniProt P45984); test: GST-fusion pull-down from cell lysates, Flag immunoblot: JNK2; format: binding; details: 5 μg GST-fusion protein on glutathione-Sepharose, Flag-JNK2 lysate, one hour 4° C.
T1 construct: expressed in transfected cells

>  <MOLECULE>
GST-JIP-1 residues 135-202: GST fusion protein containing residues 135-202 of JIP-1 (protein, UniProt Q9WVI9 135-202, looked up, fragment, GST fusion) PAPRSQGQGPGTGSGDTYRPKRPTTLNLFPQVPRSQDTLNNNSLGKKHSWQDRVSRSSSPLKTGEQTP

>  <binding to JNK2>
bound

$$$$
>  <MOLECULE>
GST-JIP-1 residues 127-281: GST fusion protein containing residues 127-281 of JIP-1 (protein, left off: a dimerising Fc or GST) PKAESNQDPAPRSQGQGPGTGSGDTYRPKRPTTLNLFPQVPRSQDTLNNNSLGKKHSWQDRVSRSSSPLKTGEQTPPHEHICLSDELPPQGSPVPTQDRGTSTDSPCRRSAATQMAPPSGPPATAPGGRGHSHRDRIHYQADVRLEATEEIYLTP

>  <binding to JNK2>
bound

$$$$

meta.source: patent US7838294B2
